From: PubChem BioAssay

Target: Short transient receptor potential channel 4 (Mus musculus) (UniProt Q9QUQ5)
Test: calcium flux activators in TRPC4/5HT1a cells, counter-screen for TRPC4 activator project, cell-based, second counter screen, HEK293 TRPC4/5HT1a, Fluo-4 (AID 434977)
Settings: Fluo-4 calcium flux, at 10 µM
Active and inactive are the calls of the source.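 How the source made its calls: active means calcium signal rise above buffer-control mean plus 5 SD in both duplicates, and also a hit in the primary screen; inactive means the rest.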
Write down the outcome that applies. Available outcomes: active, inactive

Outcome? COc1ccc(CN(C)C(=O)c2ccc(NC(=O)CC3SC(N4CCCC4)=NC3=O)cc2)c(OC)c1 (stereo not drawn)
inactive

Which outcome was entered for the compound COc1ccc(-c2n[nH]c(C)c2-c2ccccc2OC)c(O)c1 in this test?
inactive

Check the results log: what was the call for C=CCn1c(/N=C/c2ccc(N(C)C)cc2)nc2ccccc21 ?
active

What is the recorded call for this compound in the test? C=CCOc1ccc(C2CC(C)=NN2c2ccccc2)cc1 (stereo not drawn)
inactive

Answer briefly: the call reported for CCCC1=C(C(=O)OCC)C(c2cc(Cl)cc(OC)c2OCC(=O)OCC)NC(=O)N1 (stereo not drawn) in this assay.
inactive

Please share the test call associated with CCOc1nc(C)cc(C)c1S(=O)(=O)c1cccc(C)c1 .
inactive

Can you look up the reported call for O=C(OCCCCN1C(=O)c2ccccc2C1=O)c1ccc(S(=O)(=O)N2CCCC2)cc1 for me?
inactive

So what was the verdict on COC(=O)c1ccc(N2CCN(C)CC2)c(NC(=O)c2cccs2)c1 in this test?
active

For this compound, state the assay outcome: CCOc1ccc(S(=O)(=O)Nc2cccc(C(=O)NCC(c3ccccc3)N(C)C)c2)cc1 (stereo not drawn)
inactive

Each compound tested received a call. Report the one for CCOC(=O)COc1cc(-n2c(=S)[nH]c3ccccc3c2=O)c(Cl)cc1Cl .
inactive

Which result was noted for this compound in the test: CN(C)C(CNC(=O)c1ccc(S(=O)(=O)NCc2ccco2)cc1)c1ccccc1 (stereo not drawn)
inactive

Could you check what this test reported for CCOC(=O)C1(CCCc2ccccc2)CCN(Cc2cnn(C)c2)CC1 ?
inactive

Could you kindly confirm the outcome this assay logged for CCOc1ccccc1CN1CCN(Cc2cccc3nonc23)CC1CCO (stereo not drawn) ?
inactive

For this compound, state the assay outcome: Cc1cc(C)nc(NC(N)=NC2CCCCC2)n1
inactive

Recorded test outcome, item FC(F)Oc1ccccc1NC(=S)Nc1cccc(Cl)c1Cl
inactive

For this compound, state the assay outcome: COc1ccc(S(=O)(=O)n2nc(OC(=O)c3ccccc3Br)cc2N)cc1
inactive

Per the assay record, what outcome was assigned to Cc1cc(Nc2cccc(O)c2)c2ccccc2n1 ?
inactive

Each compound tested received a call. Report the one for CC(C)(C)c1cc2cccnc2n1Cc1ccccc1 .
inactive
